These data points were gathered from patent US20250101040A1.

Tested on: T24
Assay: In vitro cell proliferation inhibition assay 2, T24
Format: cell-based, human
Settings: bladder cancer
quantity.kind: IC50 (µM)

compound="Cc1nn(-c2cccnc2)c(C)c1-c1cc(N2CC3CCC(C2)O3)nc2c(-c3ccn[nH]3)cnn12 [Compound M3]" target_of_assay=T24 quantity_kind=IC50 assay_result=0.48
